Where do these numbers come from? They come from paper PMC9482650.

# TEST_SYSTEM: T1, APBA1_2, Q02410
# T1 sequence (Q02410 742-832, limits assumed, looked up): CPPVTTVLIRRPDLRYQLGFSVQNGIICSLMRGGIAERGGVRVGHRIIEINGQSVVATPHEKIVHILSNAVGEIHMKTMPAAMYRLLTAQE
# TEST_SUMMARY: holdup assay
# Parameters: key: below the threshold = too weak to quantify, mostly under pKd 3.1 to 4
# CONDITION_SET: plain residues with an end cap or a label only (N-terminal biotin on a linker: ttds)
VALUE_TYPE: pKd
No unit in the answer, please; the number alone is enough.

// worked examples, pKd included
>  <BINDER>
EVVHTPETSV [SLC16A3, O15427]

>  <VALUE_TYPE>
pKd

>  <QUANTITATIVE_RESULT>
4.09

$$$$
>  <BINDER>
NDPAWDETNL [ARHGEF7, Q14155]

>  <VALUE_TYPE>
pKd

>  <QUANTITATIVE_RESULT>
3.5

$$$$
>  <BINDER>
DKDPHSETAL [TMIGD1, Q6UXZ0]

>  <VALUE_TYPE>
pKd

>  <QUANTITATIVE_RESULT>
3.65

$$$$

Okay, now this binder:
-- ask Suppose we examine the binder EMDRRPATVV [PLCB4, Q15147] ; what pKd value has been reported?
-- reply 3.79
